system: GLP-1 receptor; experiment: GLP-1 receptor activation, in vitro assays; assay type: cell-based; settings: activity relative to the activity of GLP-1(7-37)OH
Attribute measured: GLP-1 Receptor Activation

1. Val^8-Glu^22-Lys^23-GLP-1(7-37)OH (HVEGTFTSDVSSYLEEKAAKEFIAWLVKGRG)
2. Val^8-Ala^11-GLP-1(7-37)OH (HVEGAFTSDVSSYLEGQAAKEFIAWLVKGRG)
3. Val^8-Gly^34-Lys^35-GLP-1(7-37)OH (HVEGTFTSDVSSYLEGQAAKEFIAWLVGKRG)
4. Val^8-Glu^16-GLP-1(7-37)OH (HVEGTFTSDESSYLEGQAAKEFIAWLVKGRG)
### Prompt Which order do the above substances take when sorted by rising GLP-1 Receptor Activation? Smallest first. // format: requested-order list of labels
### Response 2, 4, 3, 1
(2: 0.021, 4: 0.047, 3: 0.34, 1: 1.43)
